Where do these numbers come from? They come from patent US11746116B2.

System: MSSA9144
procedure_details: MIC, microdilution broth method
Assay type: cell-based, Staphylococcus aureus
measurement_parameters: Staphylococcus aureus (MSSA9144), Gram-Positive; read-out: MIC
measure: MIC

Example cases with answers are listed next.
[[record]]
line_notation = "C[C@H]1COc2c(N3CCN(c4ncc(F)cn4)CC3)c(F)cc3c(=O)c(C(=O)O)cn1c23"
result = "≤ 0.125 µg/mL"

[[record]]
line_notation = "Cc1cc(N2CCN(c3c(F)cc4c(=O)c(C(=O)O)cn5c4c3OC[C@@H]5C)CC2)nc(C(C)C)n1"
result = "0.25 µg/mL"

[[record]]
line_notation = "C[C@H]1COc2c(N3CC[C@@H](Nc4cnccn4)C3)c(F)cc3c(=O)c(C(=O)O)cn1c23"
result = "≤ 0.125 µg/mL"

[[record]]
line_notation = "C[C@H]1COc2c(N3CC[C@@H](Nc4ncccn4)C3)c(F)cc3c(=O)c(C(=O)O)cn1c23"
result = "≤ 0.03 µg/mL"


## Task Look up MIC: `C[C@H]1COc2c(N3CC[C@@H](Nc4ncc(F)cn4)C3)c(F)cc3c(=O)c(C(=O)O)cn1c23`
## Result ≤ 0.125 µg/mL
